target: activated protein C (Homo sapiens, UniProt P04070); construct: purchased Haematologic Technologies Inc. (Essex Jct., Vt.); test: Specificity assay, activated protein C; type: biochemical; settings: 100 nM inhibitor; activated protein C 7.6 nM, 0.7 mM S2366
Sequence (P04070 212-461 limits assumed): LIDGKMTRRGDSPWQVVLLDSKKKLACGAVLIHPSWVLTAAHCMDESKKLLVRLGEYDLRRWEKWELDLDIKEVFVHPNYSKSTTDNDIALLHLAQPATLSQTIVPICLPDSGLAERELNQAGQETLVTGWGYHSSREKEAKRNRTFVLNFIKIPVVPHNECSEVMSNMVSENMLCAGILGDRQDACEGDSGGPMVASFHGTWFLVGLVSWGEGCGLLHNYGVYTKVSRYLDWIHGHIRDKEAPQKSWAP
Sequence (P04070 43-197 limits assumed): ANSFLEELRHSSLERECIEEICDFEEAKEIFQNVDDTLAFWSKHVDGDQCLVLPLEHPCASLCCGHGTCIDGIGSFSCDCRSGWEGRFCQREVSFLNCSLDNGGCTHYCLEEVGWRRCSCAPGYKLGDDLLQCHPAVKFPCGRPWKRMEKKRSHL
Catalogue of fraction of remaining proteolytic activity, activated protein C readings, one per entry.
measured_quantity: fraction of remaining proteolytic activity, activated protein C

{"substance": "KALI-13: APPI Kunitz domain mutant, R1 SGHCRAAIPR2 FR3 (SEQ ID NO: 1) (VREVCSEQAESGHCRAAIPRWYFDVTEGKCAPFFYGGCGGNRNNFDTEEYCAAVCGSA)", "target_of_assay": "activated protein C (Homo sapiens, UniProt P04070)", "readout_value": 0.90}
{"substance": "KALI-46: APPI Kunitz domain mutant, R1 EGRCRASILR2 FR3 (SEQ ID NO: 33) (VREVCSEQAEEGRCRASILRWYFDVTEGKCAPFFYGGCGGNRNNFDTEEYCAAVCGSA)", "target_of_assay": "activated protein C (Homo sapiens, UniProt P04070)", "readout_value": 0.83}
{"substance": "KALI-30: APPI Kunitz domain mutant, R1 EGHCRAAILR2 FR3 (SEQ ID NO: 5) (VREVCSEQAEEGHCRAAILRWYFDVTEGKCAPFFYGGCGGNRNNFDTEEYCAAVCGSA)", "target_of_assay": "activated protein C (Homo sapiens, UniProt P04070)", "readout_value": 0.81}
{"substance": "KALI-8: APPI Kunitz domain mutant, R1 LGHCRAAIPR2 FR3 (SEQ ID NO: 3) (VREVCSEQAELGHCRAAIPRWYFDVTEGKCAPFFYGGCGGNRNNFDTEEYCAAVCGSA)", "target_of_assay": "activated protein C (Homo sapiens, UniProt P04070)", "readout_value": 0.89}
{"substance": "KALI-48: APPI Kunitz domain mutant, R1 TGHCRAAIPR2 FR3 (SEQ ID NO: 2) (VREVCSEQAETGHCRAAIPRWYFDVTEGKCAPFFYGGCGGNRNNFDTEEYCAAVCGSA)", "target_of_assay": "activated protein C (Homo sapiens, UniProt P04070)", "readout_value": 0.92}

###

Collected fraction of remaining proteolytic activity, Factor XIIa values appear next to each entry.
Target: Factor XIIa (Homo sapiens)
Construct: purchased Enzyme Research Laboratories, Inc. (South Bend, Ind.)
Sequence (P00748 373-615 limits assumed): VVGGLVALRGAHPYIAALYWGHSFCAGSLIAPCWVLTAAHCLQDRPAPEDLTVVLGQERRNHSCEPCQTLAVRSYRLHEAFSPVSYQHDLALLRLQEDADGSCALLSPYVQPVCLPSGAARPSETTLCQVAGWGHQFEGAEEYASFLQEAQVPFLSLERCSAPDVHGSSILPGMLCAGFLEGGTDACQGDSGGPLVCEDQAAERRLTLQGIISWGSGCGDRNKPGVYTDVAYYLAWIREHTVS
Sequence (P00748 20-372 limits assumed): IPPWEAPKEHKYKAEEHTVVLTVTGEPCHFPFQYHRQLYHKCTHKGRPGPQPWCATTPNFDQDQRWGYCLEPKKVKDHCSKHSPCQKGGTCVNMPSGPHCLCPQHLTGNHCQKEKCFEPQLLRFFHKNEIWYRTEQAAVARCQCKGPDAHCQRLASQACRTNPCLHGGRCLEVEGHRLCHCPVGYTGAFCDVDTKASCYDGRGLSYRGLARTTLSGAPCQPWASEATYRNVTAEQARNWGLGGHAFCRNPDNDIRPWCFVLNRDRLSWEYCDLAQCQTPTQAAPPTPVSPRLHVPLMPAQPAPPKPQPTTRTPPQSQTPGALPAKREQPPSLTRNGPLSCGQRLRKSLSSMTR
Assay: Specificity assay, Factor XIIa
Assay type: biochemical
Conditions: 100 nM inhibitor; 0.7 mM S2302
measured_quantity: fraction of remaining proteolytic activity, Factor XIIa

{"substance": "KALI-48: APPI Kunitz domain mutant, R1 TGHCRAAIPR2 FR3 (SEQ ID NO: 2) (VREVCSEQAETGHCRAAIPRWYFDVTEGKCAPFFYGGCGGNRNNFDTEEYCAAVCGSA)", "readout_value": 0.99}
{"substance": "KALI-13: APPI Kunitz domain mutant, R1 SGHCRAAIPR2 FR3 (SEQ ID NO: 1) (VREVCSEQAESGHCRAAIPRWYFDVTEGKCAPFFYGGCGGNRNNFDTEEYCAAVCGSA)", "readout_value": 1.00}
{"substance": "KALI-8: APPI Kunitz domain mutant, R1 LGHCRAAIPR2 FR3 (SEQ ID NO: 3) (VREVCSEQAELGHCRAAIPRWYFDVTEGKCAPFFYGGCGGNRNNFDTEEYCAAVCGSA)", "readout_value": 1.00}
{"substance": "KALI-46: APPI Kunitz domain mutant, R1 EGRCRASILR2 FR3 (SEQ ID NO: 33) (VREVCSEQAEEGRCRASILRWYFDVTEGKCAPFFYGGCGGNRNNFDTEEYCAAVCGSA)", "readout_value": 0.97}
{"substance": "KALI-30: APPI Kunitz domain mutant, R1 EGHCRAAILR2 FR3 (SEQ ID NO: 5) (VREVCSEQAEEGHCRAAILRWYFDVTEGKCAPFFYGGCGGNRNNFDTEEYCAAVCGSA)", "readout_value": 0.92}
